IC50 values, listed per item
target: Bromodomain-containing protein 4 (Homo sapiens); test: In Vitro Enzyme Inhibition Assay

molecule	IC50
CCS(O)(O)c1ccc(NCC2CC2)c(-c2cc(NC)c(=O)n(C)c2)c1 [US10941160, Example 408]	< 0.5 µM
COc1ccc(-c2cn(C)c(=O)c3cnccc23)cc1S(O)(O)NCc1ccccc1 [US10941160, Example 54]	> 5 µM
CCS(O)(O)Nc1cc(Oc2ccc(F)cc2F)cc(-c2cc(C)c(=O)n(C)c2)c1 [US10941160, Example 342]	< 0.5 µM
CC#CCOc1ccc(S(O)(O)CC)cc1-c1cn(C)c(=O)c2ccccc12 [US10941160, Example 185]	< 0.5 µM
CC#CCOc1ccc(S(O)(O)CC)cc1-c1cc(OC)c(=O)n(C)c1 [US10941160, Example 389]	< 0.5 µM
CCS(O)(O)c1ccc(NCC2CC2)c(-c2cn(C)c(=O)c3cncn23)c1 [US10941160, Example 375]	< 0.5 µM
CCS(O)(O)c1ccc(OCC2CC2)c(-c2cn(C)c(=O)c3ccoc23)c1 [US10941160, Example 378]	< 0.5 µM
CCS(O)(O)c1ccc(NCC2CC2)c(-c2cc(OC)c(=O)n(C)c2)c1 [US10941160, Example 414]	< 0.5 µM
CCOc1ccc(S(N)(O)O)cc1-c1ccc(=O)n(C)c1 [US10941160, Example 117]	< 0.5 µM
CCS(O)(O)c1ccc(OCC2CC2)c(-c2cc(C)c(=O)n(C3CC3)c2)c1 [US10941160, Example 251]	< 0.5 µM
CCS(O)(O)c1cccc(-c2cn(C)c(=O)c3ccncc23)c1 [US10941160, Example 126]	> 5 µM
CC(C)S(O)(O)c1ccc(OCC2CC2)c(-c2cn(C)c(=O)c3ccccc23)c1 [US10941160, Example 364]	< 0.5 µM
CCS(O)(O)c1ccc(OCC2CC2)c(-c2cn(C)c(=O)c3oc(C)cc23)c1 [US10941160, Example 270]	< 0.5 µM
C#Cc1cc(-c2cc(S(O)(O)CC)ccc2OCC2CC2)cn(C)c1=O [US10941160, Example 284]	< 0.5 µM
COc1ccc(S(O)(O)CCO)cc1-c1cn(C)c(=O)c2ccc(-c3cnn(C)c3)cc12 [US10941160, Example 208]	< 0.5 µM
CCS(O)(O)c1cnc(OCC2CC2)c(-c2cn(C)c(=O)c3ccccc23)c1 [US10941160, Example 322]	< 0.5 µM
Cc1cc(-c2cc(S(O)(O)C(C)C)ccc2OCC2CC2)cn(C)c1=O [US10941160, Example 394]	< 0.5 µM
CCS(O)(O)c1ccc(OCC#CC2CC2)c(-c2cc(OC)c(=O)n(C)c2)c1 [US10941160, Example 391]	< 0.5 µM
CCS(O)(O)c1ccc(OCC2CC2)c(-c2cn(C)c(=O)c3ccc(-c4cnn(C)c4)cc23)c1 [US10941160, Example 82]	< 0.5 µM
CCS(O)(O)c1ccc(OCC2CC2)c(-c2cc(Cl)c(=O)n(C)c2)c1 [US10941160, Example 272]	< 0.5 µM
CCS(O)(O)c1ccc(Nc2ccc(F)cc2F)c(-c2cc(C)c(=O)n(C)c2)c1 [US10941160, Example 396]	< 0.5 µM
CCS(O)(O)c1ccc(OCC2CC2)c(-c2cc(OCC(F)(F)F)c(=O)n(C)c2)c1 [US10941160, Example 288]	< 0.5 µM
CCS(O)(O)c1ccc(OC2CCC(F)(F)CC2)c(-c2cn(C)c(=O)c3cncn23)c1 [US10941160, Example 373]	< 0.5 µM
COc1ccc2c(=O)n(C)cc(-c3cc(S(O)(O)C(C)C)ccc3OCC3CC3)c2c1 [US10941160, Example 393]	< 0.5 µM
CCOc1ccc(S(O)(O)CC)cc1-c1cn(C)c(=O)c2cnc(-c3cnn(C)c3)nc12 [US10941160, Example 227]	< 0.5 µM
CCS(O)(O)c1ccc(OCC2CC2)c(-c2cn(C)c(=O)c3ccc(F)cc23)c1 [US10941160, Example 174]	< 0.5 µM
CCS(O)(O)c1ccc(OC)c(-c2cn(C)c(=O)c3ccc(-c4cn[nH]c4)cc23)c1 [US10941160, Example 210]	< 0.5 µM
CCCCc1cnc(NS(O)(O)CC)nc1-c1cc(OC)c(=O)n(C)c1 [US10941160, Example 362]	< 0.5 µM

Origin of the recorded values: BindingDB's records for patent US10941160
